Attribution: paper PMC9790683

- method_notes: IVIVE, rat EAD with one‐compartment PPK model
- condition_notes: oral, Css = free medium dTP
endpoint_name: EAD using PPK model, using free medium Conc. (mg/kg/day)

compound="C=CCC(CCC)C(=O)O (stereo not drawn)" result_units=mg/kg/day numeric_result=95.7
compound=C=CCCC(=O)O result_units=mg/kg/day numeric_result=931.1
compound="CCCCC(CC)C(=O)O (stereo not drawn)" result_units=mg/kg/day numeric_result=45.5
compound=CCCC(C)(C)C(=O)O result_units=mg/kg/day numeric_result=505.8
compound="CCCC(CCC)C(=O)O [VPA, Valproic acid, reference compound]" result_units=mg/kg/day numeric_result=14.3
